The origin of these recorded values is patent US20210130481A1.

# subjectOfTest: T1, human follicle-stimulating hormone receptor (FSHR) (human, UniProt P23945 18-695)
# T1 construct: whole, on cells; also called huFSHR; hFSHR
# T1 sequence (looked up): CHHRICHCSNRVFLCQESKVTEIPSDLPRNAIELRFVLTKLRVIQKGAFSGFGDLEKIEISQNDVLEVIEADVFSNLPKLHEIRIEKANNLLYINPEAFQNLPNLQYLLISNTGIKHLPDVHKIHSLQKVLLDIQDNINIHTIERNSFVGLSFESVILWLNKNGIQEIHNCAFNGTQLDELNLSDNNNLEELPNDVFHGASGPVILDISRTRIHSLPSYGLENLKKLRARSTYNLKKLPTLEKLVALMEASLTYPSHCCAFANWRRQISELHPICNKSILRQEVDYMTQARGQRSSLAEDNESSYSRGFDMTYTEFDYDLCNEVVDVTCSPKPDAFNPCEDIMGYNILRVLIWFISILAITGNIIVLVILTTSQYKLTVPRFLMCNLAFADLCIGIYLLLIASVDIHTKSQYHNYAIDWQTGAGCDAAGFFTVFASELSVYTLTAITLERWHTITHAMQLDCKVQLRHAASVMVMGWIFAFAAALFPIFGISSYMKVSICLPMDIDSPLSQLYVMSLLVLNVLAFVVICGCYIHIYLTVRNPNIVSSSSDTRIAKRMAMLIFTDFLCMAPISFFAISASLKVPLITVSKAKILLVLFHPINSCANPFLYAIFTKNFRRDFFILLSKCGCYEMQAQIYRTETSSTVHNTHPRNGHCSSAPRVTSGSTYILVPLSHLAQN
# runDescription: immunofluorescence microscopy on fixed FSHR-L-cells
recordedEndpoint: fold lower labelling concentration than the optimal concentration of FSHR323 (fold)
Enter your answer as a number in fold; do not include the unit.

(Q) Record request: fold lower labelling concentration than the optimal concentration of FSHR323 value, item mouse IgG2a anti human FSHR antibody 4 (VH CDR1 of SEQ ID NO 4, VH CDR2 of SEQ ID NO 9) (antibody, V domains shown, Mouse IgG2a heavy constant domains and mouse C kappa; also called sample 4; mouse IgG2 FSHR323 variant) VH: QVQLQQSGAELMKPGASVKISCKATGYTFSRSWILWVKQRPGHGLEWIGEIYPQNQNTNYNEKFKGKATFTADTSSSTAYMQLSSLTSEDSAVYYCARGPTASGYAMDYWGQGTSVTVSS VL: DVLMTQTPLSLPVSLGDQASISCRSSQSIVHRNGNTYLEWYLQKPGQSPKLLIYKVSNRFSGVPDRFSGSGSGTDFTLKIIRVEAEDLGVYYCFQGSHVPFTFGSGTKLEIK
(A) 33
